Parameter: apparent Kd (screen). Scope: all listed entries.
# experimental.target: T1, TNFR1 (Homo sapiens, UniProt P19438)
# T1 chain: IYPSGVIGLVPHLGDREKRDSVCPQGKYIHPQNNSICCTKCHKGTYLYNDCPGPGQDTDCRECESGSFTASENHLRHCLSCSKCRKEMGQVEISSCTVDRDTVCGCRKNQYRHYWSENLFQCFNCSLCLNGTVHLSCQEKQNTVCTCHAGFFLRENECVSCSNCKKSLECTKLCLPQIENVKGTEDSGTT
# assay.summary: yeast display SC50
Answers without a unit are incomplete; give the number and then its unit.

binder: A28N (designed binder) MTLQELLREEALRRAEAEAFRYALELLNEKFPEQKEYLLDLAEEIESQIRSLSGVDVEDVRKFLDKEWAWVKELLAEHPAELAEVEAARAARLAELRAEVEAKVAA
assay.endpoint: apparent Kd (screen)
result: 12.5 nM

Shifting focus to the binder that follows.
Entry Q4I (designed binder) MTLIELLREEALRRAEAEAFRYALELLAEKFPEQKEYLLDLAEEIESQIRSLSGVDVEDVRKFLDKEWAWVKELLAEHPAELAEVEAARAARLAELRAEVEAKVAA : reported apparent Kd (screen) = ? 0.446 nM
